test: in vitro; details: human, hela cells, % viability
# viability at 28.5 h, 10 µM values compiled below
Readout Label: viability at 28.5 h, 10 µM (%)

Molecule: CCN(CC)CCN1CCN(c2cc(-c3ccc(SC)cc3)ncn2)CC1
Readout Label: viability at 28.5 h, 10 µM
Test Result: 93.3
//
Molecule: CC(C)n1cc(CN2CCNC(=O)C2c2ccccc2C(F)(F)F)nn1 (stereo not shown)
Readout Label: viability at 28.5 h, 10 µM
Test Result: 91.6
//
Molecule: Cc1nc(C)c(CC(=O)N2CCC(Oc3cccc(F)c3)CC2)s1
Readout Label: viability at 28.5 h, 10 µM
Test Result: 97.4
//
Molecule: Cc1cc(C(=O)CSc2nnc(CN3CCCC3)o2)c(C)n1C1CC1
Readout Label: viability at 28.5 h, 10 µM
Test Result: 84
//
Molecule: C[C@H]1CN2CCCC2CN1Cc1c(F)cccc1F (stereo partly shown)
Readout Label: viability at 28.5 h, 10 µM
Test Result: 89.8
//
Molecule: Cc1nnc2sc(-c3ccc(NC(=S)NC(=O)c4ccc(-c5ccccc5[N+](=O)[O-])o4)cc3)nn12
Readout Label: viability at 28.5 h, 10 µM
Test Result: 86.4
//
Molecule: Cc1nc(C)c(CCC(=O)NC2CCSc3c(F)cccc32)c(=O)[nH]1 (stereo not shown)
Readout Label: viability at 28.5 h, 10 µM
Test Result: 95.2
//
Molecule: Cc1ccc2[nH]c(-c3ccccc3NC(=O)CCCC(=O)O)nc2c1
Readout Label: viability at 28.5 h, 10 µM
Test Result: 86
//
Molecule: O=C(O)c1ccc(NS(=O)(=O)c2ccc(Br)cc2)cc1
Readout Label: viability at 28.5 h, 10 µM
Test Result: 97.6
//
Molecule: O=C(NCCOc1ccccc1Cc1ccccc1)c1cncc(Br)c1
Readout Label: viability at 28.5 h, 10 µM
Test Result: 103
//
Molecule: CCC(=O)Nc1sc2c(c1-c1nc3ccccc3s1)CCCC2
Readout Label: viability at 28.5 h, 10 µM
Test Result: 91.7
//
Molecule: O=C(Cc1c[nH]c2ccccc12)N1CCC2(CCN(C(=O)CC3CCCCC3)C2)C1 (stereo not shown)
Readout Label: viability at 28.5 h, 10 µM
Test Result: 88.3
//
Molecule: CN1CCN(c2ccc(-c3cc(Nc4cccc(OCc5ccccc5)c4)ncn3)cn2)CC1
Readout Label: viability at 28.5 h, 10 µM
Test Result: 113
//
Molecule: O=C(NCCC1SC(NC2CCCCCC2)=NC1=O)Nc1ccc(F)cc1F (stereo not shown)
Readout Label: viability at 28.5 h, 10 µM
Test Result: 99.7
//
Molecule: CS(=O)(=O)c1ccc(-c2cnc(N)c(NC3CCC(O)CC3)n2)cc1 (stereo not shown)
Readout Label: viability at 28.5 h, 10 µM
Test Result: 110
//
Molecule: NS(=O)(=O)c1ccc(CCNC(=O)c2ccc3c(c2)OCCO3)cc1
Readout Label: viability at 28.5 h, 10 µM
Test Result: 104
//
Molecule: CC(NC(=O)c1cc(C(F)(F)F)n(C)n1)c1cccnc1 (stereo not shown)
Readout Label: viability at 28.5 h, 10 µM
Test Result: 97.6
//
Molecule: S=c1n(CN2CCC(c3ccccc3)CC2)nc(Cc2ccccc2)n1-c1ccccc1
Readout Label: viability at 28.5 h, 10 µM
Test Result: 95.2
//
Molecule: CCOc1ccsc1C(=O)N1CCC(Cc2ccccc2)CC1
Readout Label: viability at 28.5 h, 10 µM
Test Result: 114
